test_method_notes: amyloid nucleation score (Sup35N fusion, yeast selection) (log enrichment); library NNK1; higher = more nucleation; inactive = no reads after selection;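 note: zero at mode of non-aggregating sequences after 7 days selection at 30°C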
readout: amyloid nucleation score
Form rule: numeric answer, no unit written next to it.

Ask: So what does the record say about amyloid nucleation score for KCQIGSMVLSYMVELPGDRD ?
Result: -0.171

Ask: Follow-up item: TVFWRYCSRVLNDKFGQFWV
Result: 0.043

Ask: Follow-up item: NMSCCSTPYNPWTSIVPNVM
Result: 0.103

Ask: Follow-up item: SFNKDRKIYTRPELRFMMFL
Result: -0.707

Ask: Follow-up item: YFSFLDNGGMPYVVVDYGLC
Result: 0.042

Ask: Follow-up item: SLFLAGIMDIRGWYVVASTP
Result: -0.34

Ask: Follow-up item: LDRAVHPGVVSPWSQVTRTM
Result: 0.749
